Data provenance is patent US8686147B2.

TGT: human 5-HT2A serotonin receptor (Homo sapiens)
Construct: expressed in transfected cells
Sequence (P28223 whole entry): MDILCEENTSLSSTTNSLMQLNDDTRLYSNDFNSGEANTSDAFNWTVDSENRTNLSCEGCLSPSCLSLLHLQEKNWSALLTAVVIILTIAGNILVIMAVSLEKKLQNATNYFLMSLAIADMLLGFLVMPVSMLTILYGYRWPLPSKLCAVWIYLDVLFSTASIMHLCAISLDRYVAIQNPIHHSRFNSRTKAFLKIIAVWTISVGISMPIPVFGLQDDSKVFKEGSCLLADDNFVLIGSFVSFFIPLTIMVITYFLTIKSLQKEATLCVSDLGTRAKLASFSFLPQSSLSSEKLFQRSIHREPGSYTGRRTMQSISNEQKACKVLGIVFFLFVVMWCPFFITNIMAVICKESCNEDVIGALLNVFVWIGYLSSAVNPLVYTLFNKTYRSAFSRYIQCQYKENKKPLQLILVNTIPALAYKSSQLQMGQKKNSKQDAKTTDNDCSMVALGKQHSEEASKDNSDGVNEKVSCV
PROCEDURE_TEXT: Binding to the human 5-HT2A serotonin receptor
EXPERIMENTAL_SETUP: human 5-HT2A receptor; six concentrations; read-out: 5-HT2 (pKi) (converted)
For each record, write down the corresponding Ki.

Asked: Reported Ki for CCCCN1CCC(COc2nc3ccccc3c3cn(C)cc23)CC1 [Compound 3] : what is it?
Given back: > 1 µM

Asked: Fill in the blank: the reported Ki of Cl.Cn1cc2c(OCC3CCN(CCN4CCOCC4)CC3)nc3ccccc3c2c1 [Compound 9a, hydrochloride] is ____.
Given back: > 10 µM

Asked: // lookup Ki for CC(=O)Nc1ccc(CCN2CCC(COc3nc4ccccc4c4cn(C)cc34)CC2)cc1 [Compound 13]
Given back: > 1 µM

Asked: // Ki lookup, key: Cn1cc2c(OCC3CCN(CCc4ccc(C(=O)O)cc4)CC3)nc3ccccc3c2c1 [Compound 12a]
Given back: > 10 µM
